- protocol_description: activity coefficient (dimensionless); of the first substance listed, at infinite dilution; xn = mol fraction of the nth substance listed
- cond: 313.15 K; 101 kPa; Liquid; Dilutor technique; x1 = 0
Listed next: entries and their corresponding activity coefficient.
Please respond with just the number, no unit label.

Answered cases to consult:
CCCCCCCC [octane] + CCCCn1cc[n+](C)c1.O=S(=O)([O-])C(F)(F)F    65.6
C=CCCCC [hex-1-ene] + CCCCn1cc[n+](C)c1.O=S(=O)([O-])C(F)(F)F    13.8

Form field: reported activity coefficient of CCCCCCC [heptane] + CCCCn1cc[n+](C)c1.O=S(=O)([O-])C(F)(F)F
42.3

For the molecule shown here, C=CCCC [1-pentene] + CCCCn1cc[n+](C)c1.O=S(=O)([O-])C(F)(F)F , give the reported activity coefficient.
9.55
